Data credit: ChEMBL document CHEMBL1201862

# system: Streptokinase A (Streptococcus pyogenes serotype M1)
# Sequence (P10520 whole entry): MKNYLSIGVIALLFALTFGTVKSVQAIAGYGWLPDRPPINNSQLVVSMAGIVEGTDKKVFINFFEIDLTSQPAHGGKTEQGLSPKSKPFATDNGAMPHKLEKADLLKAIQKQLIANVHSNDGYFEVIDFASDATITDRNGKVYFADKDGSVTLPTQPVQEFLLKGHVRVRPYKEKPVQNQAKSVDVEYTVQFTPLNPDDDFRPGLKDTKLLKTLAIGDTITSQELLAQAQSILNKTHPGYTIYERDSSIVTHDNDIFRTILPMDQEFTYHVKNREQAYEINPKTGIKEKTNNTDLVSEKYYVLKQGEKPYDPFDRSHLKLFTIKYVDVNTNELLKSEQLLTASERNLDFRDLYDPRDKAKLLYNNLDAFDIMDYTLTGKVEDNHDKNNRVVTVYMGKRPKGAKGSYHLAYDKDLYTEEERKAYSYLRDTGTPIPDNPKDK
# procedure text: S. pyogenes streptokinase expression inhibitors, potency, dose response, plasminogen activation absorbance, OD405 (AID 1914);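 further: secreted streptokinase activity via plasminogen activation per viability signal from cell pellet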
# Assay type: functional, Streptococcus pyogenes M1 GAS
The source made the active and inactive calls. No stated cut-off is given here; in the data, actives have a measured EC50 and inactives only a lower limit.
Provide the recorded EC50 for the entries that follow.

Q) # query: EC50 of entry `Clc1cccc(Cl)c1C1Nc2cccc3cccc(c23)N1`
A) > 50 µM (not active)

Q) # query: EC50 of entry `CCCN(CC(=O)Nc1ccccc1OC)C(=O)c1ccncc1`
A) > 150 µM (not active)

Q) # query: EC50 of entry CCc1ccc(NC(=O)c2ccc(F)c(S(=O)(=O)NCC3COc4ccccc4O3)c2)cc1 (centres undefined)
A) 35.2 µM (active)

Q) # query: EC50 of entry `CCCCc1nc(N2CCN(C(=O)c3ccco3)CC2)c(C#N)c2c1CCCC2`
A) 8.54 µM (active)

Q) # query: EC50 of entry `Cn1c(=O)c2c(nc(SCc3ccccc3)n2Cc2ccc(Cl)cc2)n(C)c1=O`
A) 10.7 µM (active)

Q) # query: EC50 of entry `COC(=O)c1sc(-c2ccc(C(C)(C)C)cc2)cc1NC(=O)CSCC(=O)O`
A) 6.69 µM (active)

Q) # query: EC50 of entry `CC1=CC(C)(C)n2c(O)c(N=N)c3c(C)c(C)cc1c32`
A) 16.3 µM (active)

Q) # query: EC50 of entry `O=C(O)c1ccc(CSc2nc(-c3ccc(Cl)cc3)cc(C(F)(F)F)n2)cc1`
A) > 150 µM (not active)

Q) # query: EC50 of entry `O=C(Nc1ccccc1)C(=O)Nc1ccc2c(c1)N(C(=O)C1CC1)CCC2`
A) > 150 µM (not active)
